System: OVCAR-4 ovarian
Assay: NCI-60 one-dose screen, 48 h
Conditions: 10 µM unless noted
Compounds without any hit were thinned out: in the full panel of roughly 83,000, 20% have a hit. Activity calls are given as the source filed them. How the source made its calls: active means growth percent below 10; inactive means the rest.
Return exactly one item of 1 (active), -1 (inactive)

> print(dat)
                            compound.string     study.system  group
1  COC(=O)[C@H](Cc1cn(C)cn1)NC(=O)[C@H](Cc1ccccc1)NC(=O)Nc1cc(C(F)(F)F)cc(C(F)(F)F)c1  OVCAR-4 ovarian      1
2  N=C1c2nc3n(c2C(=O)c2nc4n(c21)CCCCC4)CCCCC3  OVCAR-4 ovarian     -1
3        Nc1ccc(N=Nc2ccccc2)cc1[N+](=O)[O-]  OVCAR-4 ovarian     -1
4  CCCn1c(N)c(C(=O)CNc2ccc(I)cc2)c(=O)[nH]c1=O  OVCAR-4 ovarian     -1
5  COc1cc(-c2nc3nc4sc(C)c(C)c4c(=O)n3[nH]2)cc(OC)c1OC  OVCAR-4 ovarian     -1

# evaluate next
input: // param item: "CC(=O)c1ccc(NS(=O)(=O)c2ccc([N+](=O)[O-])cc2)cc1" ; yields the recorded call
output: -1
